tested on: Acidithiobacillus ferrooxidans AfArsR variant C102S (Cys102 eliminated by mutation; pBADarsR / parsO-gfp biosensor in E. coli AW3110); format: cell-based; settings: read-out: apparent half maximal concentration for induction
propertyName: EC50

Consider the compound shown here: C[As](O)O What is its recorded EC50?
~3000 nM
